assay: Toxicity liver stage against HepG2, at 10uM; type: cell-based; parameters: test concentration 10 uM, cell line HepG2-A16-CD81EGFP; details: human, HepG2-A16-CD81EGFP cells; read-out: INHIBITION
cytotoxicity at 10 µM by entry:
measured.parameter: cytotoxicity at 10 µM (%)

INSERT INTO assay_data (compound, meas_value) VALUES
  ('CC(C)n1nc(Cn2cccn2)c2c1CN(C1CCOC1)C2 (stereo unspecified)', 6.95),
  ('CS(=O)(=O)N1CCN(C(=O)c2cnn3c2OCCC3)CC1', -3.45),
  ('c1cncc(O[C@H]2CC[C@H]3[C@H]2OCCN3C2CCC2)c1', -6.69),
  ('CCn1ncc2c1CN(C(=O)Cc1cccs1)CC2COC (stereo unspecified)', 4.7),
  ('CN(C)CCN1CCN(Cc2cccc(C#N)c2)Cc2cccnc21', -1.57),
  ('Cc1cnn(CCNCc2ccccc2Oc2cccnc2)c1', 6.33);

###

cytotoxicity at 10 µM by entry:
experiment: Toxicity liver stage against HepG2, at 10uM; assay type: cell-based; design: test concentration 10 uM, cell line HepG2-A16-CD81EGFP; conditions: human, HepG2-A16-CD81EGFP cells; read-out: INHIBITION
measured.parameter: cytotoxicity at 10 µM (%)

INSERT INTO results (compound, units_of_measure, meas_value) VALUES
  ('O=C(Nc1ccc(I)cc1C(=O)NCCN1CCOCC1)c1cccs1', '%', -5.09),
  ('Cc1nc2ccccc2nc1CN1CCn2nc(CCC(=O)O)cc2C1', '%', -3.43),
  ('O=C(CCc1ccccc1)N1CCC(N2CCNC2=O)CC1', '%', 5.49),
  ('Cc1nc(C)c2c(n1)CCN(C(=O)CN(C)C)CC2', '%', -4.51),
  ('CCC(C)NC(=O)NCc1cc2n(n1)CCCN(C1CCCCC1)C2 (configuration not stated)', '%', 3.11),
  ('Cc1cc(C)n(Cc2cccc(C(=O)NCCSCC(C)(C)O)c2)n1', '%', -6.93),
  ('CN(C)CCCNC(=O)c1cc(Cl)ccc1Cl', '%', -6.56),
  ('CCCn1ccnc1CN1CCCC(CC)(CO)C1 (configuration not stated)', '%', 3.44),
  ('CC(=O)N1CCC2(CCN(Cc3ccc(Cl)c(C(F)(F)F)c3)CC2)C1', '%', -81.9),
  ('CN(CCO)CC1COCCN1C(=O)C1(c2cccs2)CCCC1 (configuration not stated)', '%', -9.06),
  ('COC1CCCN(Cc2nc(Cc3ccccc3F)no2)C1 (configuration not stated)', '%', -4.23),
  ('O=S(=O)(NCCSc1nccn1C1CC1)c1ccccc1', '%', -9.34);

###

cytotoxicity at 10 µM by entry:
assay: Toxicity liver stage against HepG2, at 10uM; assay type: cell-based; parameters: test concentration 10 uM, cell line HepG2-A16-CD81EGFP; details: human, HepG2-A16-CD81EGFP cells; read-out: INHIBITION
measured.parameter: cytotoxicity at 10 µM (%)

INSERT INTO measurements (compound, units_of_measure, meas_value) VALUES
  ('CCN1C(=O)CCCC12CCCN(C(=O)c1sccc1C)C2 (stereo unspecified)', '%', 3.73),
  ('COC(=O)CCC(=O)N1CCC2(CN(Cc3ccccc3F)C2)C1', '%', 5.58),
  ('CC(C)OCc1noc(C2CC=CC2)n1', '%', 16.5),
  ('O=C(NCC1CCOCC1)[C@H]1C[C@@H]2CCN(c3nncs3)C[C@@H]2O1', '%', 1.73),
  ('CCc1nc(C2CCCN2CC(=O)Nc2cc(C)nn2C)no1 (stereo unspecified)', '%', -7.82),
  ('CS(=O)(=O)NCC1CCCN(C(=O)CCCc2ccccc2)C1 (stereo unspecified)', '%', -2.78);
